Target: PIK3CD (Human)
pIC50: −log10 of the molar value.
Rule: pIC50 under 8 gives label 0, otherwise label 1.

Query block: Item "CCn1ncc(-c2nc3c(O[C@H]4CCN(C(=O)c5cc(C(C)(C)C)nn5C)C4)ncnc3n2C)c1C" with pIC50 of 8 or above?
Result block: label 0

Query block: Please tell me: is the compound "CCn1ncc(-c2nc3c(O[C@H]4CCN(C(=O)c5cc6n(n5)CCC6)C4)ncnc3n2C)c1C" at or over 8 in terms of pIC50?
Result block: label 0

Query block: Hi team, for CCn1ncc(-c2nc3c(O[C@H]4CCN(C(=O)C5CCc6nnnn65)C4)ncnc3n2C)c1C (some centres undefined) , is the recorded pIC50 at or above 8?
Result block: label 0

Query block: Is reported pIC50 greater than or equal to 8 here: "CCn1ncc(-c2nc3c(O[C@H]4CCN(C(=O)c5nc6cc(Cl)ccn6n5)C4)ncnc3n2C)c1C"
Result block: label 0

Query block: In plain terms: is recorded pIC50 at least 8 for "CCn1c(-c2cnc(N(C)C)nc2)nc2c(O[C@H]3CCN(C(=O)C4CC4)C3)ncnc21" ?
Result block: label 0

Query block: Test whether the compound "CCn1c(-c2cnc(C)nc2)nc2c(O[C@H]3CCN(C(=O)c4ccn(C)n4)C3)ncnc21" records pIC50 of 8 or higher.
Result block: label 1

Query block: Kindly determine if pIC50 recorded for "CCn1ncc(-c2nc3c(O[C@H]4CCN(C(=O)c5cc(C)nn5C)C4)ncnc3n2C)c1C" is above or exactly 8.
Result block: label 0

Query block: I'd appreciate it if you could say whether "CCC(=O)N1CC[C@H](Oc2ncnc3c2nc(-c2cnn(CC)c2C)n3CC)C1" has pIC50 at least equal to 8.
Result block: label 1

====

Target: UniProt:O00329
pIC50: −log10 of the molar value.
Rule: criterion met for pIC50 not less than 7, criterion not met for anything less.

{"columns": ["structure-as-smiles", "measurement-target", "answer-label"],
 "data": [
  ["CCC(=O)N1CC[C@H](Oc2ncnc3c2nc(C2CC2)n3C)C1", "UniProt:O00329", "criterion not met"]
]}

Would you kindly look at the next entry?
Query block: hey, is pIC50 for this one >= 7? "Cc1ncc(-c2nc3c(O[C@H]4CCN(C(=O)OC(C)(C)C)C4)ncnc3n2C)n1C"
Result block: criterion met

====

Biological target: PIK3CD (Human) (UniProt O00329)
Sequence (O00329 whole entry, looked up): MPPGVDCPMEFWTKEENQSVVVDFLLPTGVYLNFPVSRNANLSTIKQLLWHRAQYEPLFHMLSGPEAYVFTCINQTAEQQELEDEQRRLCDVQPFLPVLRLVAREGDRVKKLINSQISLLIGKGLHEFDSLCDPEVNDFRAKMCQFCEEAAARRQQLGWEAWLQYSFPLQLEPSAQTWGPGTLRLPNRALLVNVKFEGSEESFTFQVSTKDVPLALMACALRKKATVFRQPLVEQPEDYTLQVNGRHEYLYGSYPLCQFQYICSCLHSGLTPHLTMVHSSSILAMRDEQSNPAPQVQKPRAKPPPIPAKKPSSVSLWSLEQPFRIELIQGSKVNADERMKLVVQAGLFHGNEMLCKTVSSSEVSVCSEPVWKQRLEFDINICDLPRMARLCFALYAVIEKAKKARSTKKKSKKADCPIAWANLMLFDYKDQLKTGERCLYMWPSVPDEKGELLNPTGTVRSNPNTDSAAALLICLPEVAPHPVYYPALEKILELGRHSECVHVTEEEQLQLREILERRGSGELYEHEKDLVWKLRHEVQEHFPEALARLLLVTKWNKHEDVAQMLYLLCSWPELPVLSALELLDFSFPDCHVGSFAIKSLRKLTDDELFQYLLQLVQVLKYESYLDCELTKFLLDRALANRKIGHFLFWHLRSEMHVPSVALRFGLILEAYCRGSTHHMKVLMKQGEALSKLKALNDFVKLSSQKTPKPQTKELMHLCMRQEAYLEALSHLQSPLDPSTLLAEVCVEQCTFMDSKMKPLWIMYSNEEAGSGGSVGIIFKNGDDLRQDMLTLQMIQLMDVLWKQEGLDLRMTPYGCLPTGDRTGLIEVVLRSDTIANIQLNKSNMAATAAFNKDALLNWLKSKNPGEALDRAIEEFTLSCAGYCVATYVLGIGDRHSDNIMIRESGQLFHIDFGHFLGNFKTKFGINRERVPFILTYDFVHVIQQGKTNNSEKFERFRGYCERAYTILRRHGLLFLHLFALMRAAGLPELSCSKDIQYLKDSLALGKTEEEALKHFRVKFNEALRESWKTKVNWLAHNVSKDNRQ
Assay: Enzyme Assay
endpoint-name: pIC50
Answer as the number alone; pIC50 is minus log10 of concentration in mol/L.

{"columns": ["compound", "pIC50"],
 "data": [
  ["CCn1ncc(-c2nc3c(O[C@H]4CCN(c5cc(-n6cc(C)cn6)ncn5)C4)ncnc3n2C)c1C", 6.80],
  ["CC(=O)Nc1ccc(-c2nc3c(O[C@H]4CCN(C(=O)OC(C)(C)C)C4)ncnc3n2C)cc1", 6.85],
  ["CCC(=O)N1CC[C@H](Oc2ncnc3c2nc(-c2cnn4c2CCCC4)n3C)C1", 8.62],
  ["CCn1c(C(=O)NC2CCCCC2)nc2c(O[C@H]3CCN(C(=O)OC(C)(C)C)C3)ncnc21", 7.14],
  ["CCC(=O)N1CC[C@H](Oc2ncnc3c2nc(-c2ccc(S(C)(=O)=O)cc2)n3C)C1", 6.52],
  ["CCn1ncc(-c2nc3c(O[C@H]4CCN(C(=O)NC(C)(C)CC(C)(C)C)C4)ncnc3n2C)c1C", 8.33]
]}

Value sought: pIC50, system PIK3CD (Human) (UniProt O00329), item CCn1ncc(-c2nc3c(O[C@H]4CCN(C(=O)C5CC(=O)N(C(C)C)C5)C4)ncnc3n2C)c1C (some centres undefined) . Result: 8.00

The origin of these recorded values is the Kinase Knowledgebase extract (Sharma et al. 2016).
